System: MYT1L
Assay: 3' UTR reporter interaction score (median-centred robust z-score of log2 firefly/Renilla activity); higher = less repression of the 3' UTR reporter
Conditions: HEK293T; 48 h
sequences and their reported 3' UTR reporter interaction score

AAAGUGCAUCCUUUUAGAGGUUU    -1.16
UUUGGCACUAGCACAUUUUUGC    -0.203
CCUAGUAGGUGUCCAGUAAGUGU    0.0095
AGCUGGUGUUGUGAAUC    0.16

Now let's try a different one.
Short answer on MYT1L for UCAGGCUCAGUCCCCUCCCGAU , 3' UTR reporter interaction score: -0.304
